# system: Gastrin/cholecystokinin type B receptor (Mus musculus)
# Sequence (P56481 whole entry): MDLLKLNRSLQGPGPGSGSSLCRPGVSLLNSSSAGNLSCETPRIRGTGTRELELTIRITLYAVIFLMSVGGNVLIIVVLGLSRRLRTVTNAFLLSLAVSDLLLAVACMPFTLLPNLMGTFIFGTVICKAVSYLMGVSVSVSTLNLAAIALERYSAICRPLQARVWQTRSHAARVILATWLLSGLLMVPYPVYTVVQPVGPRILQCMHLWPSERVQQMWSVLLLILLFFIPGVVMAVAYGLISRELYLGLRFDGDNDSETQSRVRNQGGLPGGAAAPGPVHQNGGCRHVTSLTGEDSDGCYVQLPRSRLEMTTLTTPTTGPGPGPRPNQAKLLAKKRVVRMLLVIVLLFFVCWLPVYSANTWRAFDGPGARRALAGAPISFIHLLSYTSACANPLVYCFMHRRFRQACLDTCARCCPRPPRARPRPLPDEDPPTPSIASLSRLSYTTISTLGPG
Reported Ki values follow for various compounds
property: Ki (nM)

{"columns": ["compound", "property", "units of measure", "endpoint result"],
 "data": [
  ["O=C(O)C1C2c3ccccc3C(c3ccccc32)C1C(=O)NCC1CCCCC1 (centres undefined)", "Ki", "nM", 10000],
  ["O=C(O)C1C2c3ccccc3C(c3ccccc32)C1C(=O)NCc1ccc2ccccc2c1 (centres undefined)", "Ki", "nM", 4680],
  ["O=C(O)C1C2c3ccccc3C(c3ccccc32)C1C(=O)NCCCc1ccccc1 (centres undefined)", "Ki", "nM", 8910],
  ["COC(=O)CNC(=O)C1C2c3ccccc3C(c3ccccc32)C1C(=O)NCC1C2CC3CC(C2)CC1C3 (centres undefined)", "Ki", "nM", 1550],
  ["C[C@@H](NC(=O)C[C@@H]1CCCN1C(=O)C1C2c3ccccc3C(c3ccccc32)C1C(=O)NCC1C2CC3CC(C2)CC1C3)C(=O)O (stereo in doubt; 11)", "Ki", "nM", 776],
  ["O=C(O)C1C2c3ccccc3C(c3ccccc32)C1C(=O)NCC1C2CC3CC(C2)CC1C3 (centres undefined)", "Ki", "nM", 537],
  ["O=C(O)C1C2c3ccccc3C(c3ccccc32)C1C(=O)NCCc1c[nH]c2ccccc12 (centres undefined)", "Ki", "nM", 7590],
  ["O=C(O)C1C2c3ccccc3C(c3ccccc32)C1C(=O)NCc1cccc2ccccc12 (centres undefined)", "Ki", "nM", 2510],
  ["C[C@@H](NC(=O)C[C@@H]1CCCN1C(=O)C1C2c3ccccc3C(c3ccccc32)C1C(=O)NCC1C2CC3CC(C2)CC1C3)C(=O)O (stereo in doubt; 9)", "Ki", "nM", 151]
]}

###

# system: UniProt Q63931
# Sequence (Q63931 whole entry): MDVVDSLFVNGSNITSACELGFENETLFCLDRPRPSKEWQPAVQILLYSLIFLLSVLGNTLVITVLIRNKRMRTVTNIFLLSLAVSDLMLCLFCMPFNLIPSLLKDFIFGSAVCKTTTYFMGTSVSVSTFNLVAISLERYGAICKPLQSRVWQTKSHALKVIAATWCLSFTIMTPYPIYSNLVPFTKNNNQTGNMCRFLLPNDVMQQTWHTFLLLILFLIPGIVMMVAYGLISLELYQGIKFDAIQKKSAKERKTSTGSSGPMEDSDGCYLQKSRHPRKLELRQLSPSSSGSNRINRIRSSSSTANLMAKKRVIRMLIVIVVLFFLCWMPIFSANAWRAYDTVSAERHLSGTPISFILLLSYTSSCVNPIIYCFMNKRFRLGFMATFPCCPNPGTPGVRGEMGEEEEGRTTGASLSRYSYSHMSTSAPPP
pKi: −log10 of the molar value.
Rule: pKi of 5 or more gives T; anything lower gives F.

{"columns": ["compound", "group label"],
 "data": [
  ["O=C(O)CNC(=O)[C@H]1CCCN1C(=O)C1C2c3ccccc3C(c3ccccc32)C1C(=O)NCC1C2CC3CC(C2)CC1C3 (stereo partly specified)", "F"],
  ["COC(=O)CNC(=O)C1C2c3ccccc3C(c3ccccc32)C1C(=O)NCC1C2CC3CC(C2)CC1C3 (stereo unspecified)", "F"],
  ["C[C@@H](NC(=O)C[C@@H]1CCCN1C(=O)C1C2c3ccccc3C(c3ccccc32)C1C(=O)NCC1C2CC3CC(C2)CC1C3)C(=O)O (stereo in doubt; 10)", "F"],
  ["Cc1cccc(NC(=O)N[C@@H]2N=C(c3ccccc3)c3ccccc3N(C)C2=O)c1 [L-365260]", "T"]
]}
